Recorded values, source ChEMBL document CHEMBL1147020.

# Target or test system: Inosine-5'-monophosphate dehydrogenase 2 (Homo sapiens, UniProt P12268)
# Assay comment: Inhibition of IMPDH2 at 50 uM
Calls of active or inactive are those of the source. The rule behind the calls is not given here.
Measured metric: inhibition

See these solved cases before continuing.
c1cncc(-c2c[nH]c3ccccc23)c1 | inactive
Cn1cc(C(N)=O)c2ccccc21 | 50%
Cc1cc(-c2c[nH]c3cc(N)ccc23)ccn1 | inactive
Cn1cc(-c2ccncc2)c2ccc(Br)cc21 | 62%

Pending compound:
Give the value of inhibition reported for the following: NC(=O)c1c[nH]c2ccccc12
inactive

* * *

# Target or test system: Inosine-5'-monophosphate dehydrogenase 2 (Homo sapiens)
Measured metric: pIC50
Answers are plain numbers, as −log10 of the molar value.

See these solved cases before continuing.
N#Cc1c[nH]c2ccccc12 | 4.68
Cn1cc(-c2ccoc2)c2ccccc21 | 5.21
Nc1cccc2c(-c3ccncc3)c[nH]c12 | 6.28
Cc1[nH]c2cc(N)ccc2c1-c1ccncc1 | 6.38
c1ccc2c(-c3ccncc3)c[nH]c2c1 | 5.94
COc1cc(N)ccc1-c1cnco1 | 5.09
Nc1ccc2c(-c3ccsc3)c[nH]c2c1 | 5.63
Nc1ccc2c(-c3ccncc3)c[nH]c2c1 | 6.20

Pending compound:
Give the value of pIC50 reported for the following: O=Cc1c[nH]c2ccccc12
4.64
